- TEST TARGET: T1, polypeptide GC3pep (human)
- T1 construct: also called membrane proximal polypeptide GC3pep
- T1 peptide: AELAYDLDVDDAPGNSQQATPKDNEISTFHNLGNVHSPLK
- PROCEDURE DETAILS: ELISA, GC3pep coated, antibody 0.01 nM;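 further: bound antibody detected with an HRP-conjugated secondary antibody and TMB substrate, color reaction stopped with HCl before reading absorbance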
Consider the following binders; for each one, report its OD450 nm.
Reply numerically in OD450 nm, unit not repeated.

Query block: I would be grateful if you could share the reported OD450 nm for F1.145.22 (antibody, human IgG1, kappa, V domains shown, human-murine chimeric antibody) VH: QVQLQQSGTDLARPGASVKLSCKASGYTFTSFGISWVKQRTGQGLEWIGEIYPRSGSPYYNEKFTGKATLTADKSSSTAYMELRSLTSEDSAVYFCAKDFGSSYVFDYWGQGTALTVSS VL: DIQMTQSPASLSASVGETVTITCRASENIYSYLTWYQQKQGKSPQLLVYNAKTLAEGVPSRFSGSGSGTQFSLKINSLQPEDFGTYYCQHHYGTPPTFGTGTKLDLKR .
Result block: 0.04

Query block: I would be grateful if you could share the reported OD450 nm for F1.118.4 (antibody, human IgG1, kappa, V domains shown, human-murine chimeric antibody) VH: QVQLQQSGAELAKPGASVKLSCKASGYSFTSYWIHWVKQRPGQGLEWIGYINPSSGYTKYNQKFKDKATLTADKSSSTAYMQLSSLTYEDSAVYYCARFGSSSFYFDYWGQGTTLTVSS VL: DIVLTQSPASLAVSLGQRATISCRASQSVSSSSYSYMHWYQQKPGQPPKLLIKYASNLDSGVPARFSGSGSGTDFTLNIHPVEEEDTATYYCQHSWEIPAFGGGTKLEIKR .
Result block: 0.04

Query block: I would be grateful if you could share the reported OD450 nm for F1.2.14 (antibody, human IgG1, kappa, V domains shown, human-murine chimeric antibody) VH: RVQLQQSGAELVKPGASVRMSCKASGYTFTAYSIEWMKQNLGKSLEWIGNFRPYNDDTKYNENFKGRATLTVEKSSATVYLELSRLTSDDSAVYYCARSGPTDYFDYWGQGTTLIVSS VL: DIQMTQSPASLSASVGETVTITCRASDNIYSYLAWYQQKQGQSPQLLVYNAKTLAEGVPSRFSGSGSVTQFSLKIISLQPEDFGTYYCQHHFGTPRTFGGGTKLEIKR .
Result block: 0.05
